B1: TRIM55 (parent)
chain: YKSFSKEQQTMDNLEKQLICPICL

Variants of: B1
experiment summary: protein stability index of a GFP-peptide fusion (GPS, HEK-293T) (PSI 1-6); higher = more stable;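 also: lentivirally expressed fusions sorted by FACS into six bins by GFP to DsRed ratio, PSI derived from sequencing read proportions per bin multiplied by bin number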
condition info: c terminus: a fixed tail appended
The entries below are paired with their reported protein stability index.
property measured: protein stability index

>>> assay_result("C23W")
1.65
>>> assay_result("F4S")
2.64
>>> assay_result("K6S")
2.14
>>> assay_result("Q9F")
1.79
>>> assay_result("I22F")
2.21
